Tested on: T cell lymphoma Karpas-299 cell line (harboring endogenous NPM-ALK fusion gene)
Assay: Cell proliferation assay, Karpas-299 cells (CellTiter-Glo)
Format: cell-based
Conditions: Homo sapiens, 72 hours incubation
recorded_endpoint: pIC50
// pIC50: -log10(molar conc.)

Exercise: Can you share its pIC50? I mean this compound: C[C@H]1Nc2ccn3ncc(c3n2)C(=O)N[C@@H](CN(C)C)COc2ccc(F)cc21
Key: 5.49

Exercise: Can you share its pIC50? I mean this compound: C[C@H]1Nc2ccn3ncc(c3n2)C(=O)NC[C@H](C(F)F)Oc2ccc(F)cc21
Key: 7.61

Exercise: Can you share its pIC50? I mean this compound: C[C@H]1Nc2ccn3ncc(c3n2)C(=O)NC[C@@H](CO)Oc2ccc(F)cc21
Key: 6.36

Exercise: Can you share its pIC50? I mean this compound: CC[C@H]1CNC(=O)c2cnn3ccc(nc23)N[C@H](C)c2cc(F)ccc2O1
Key: 7.08

Exercise: Can you share its pIC50? I mean this compound: CC[C@H]1COc2ccc(F)cc2[C@@H](CC)Nc2ccn3ncc(c3n2)C(=O)N1
Key: 5.10

Exercise: Can you share its pIC50? I mean this compound: C[C@H]1Nc2ccn3ncc(c3n2)C(=O)N[C@@H](C(F)F)COc2ccc(F)cc21
Key: 6.33

Exercise: Can you share its pIC50? I mean this compound: COC[C@@H]1CNC(=O)c2cnn3ccc(nc23)N[C@H](C)c2cc(F)ccc2O1
Key: 6.78

Exercise: Can you share its pIC50? I mean this compound: C[C@H]1Nc2ccn3ncc(c3n2)C(=O)N[C@H](CF)COc2ccc(F)cc21
Key: 6.23

This collection of values is drawn from patent US11008337B2.
